test system: MCF7; test: Antiproliferative activity against human MCF7 cells assessed as reduction in cell viability incubated for 48 hrs by MTT assay; assay type: functional, cell-based; settings: MCF7, 48 h, read-out: IC50
Each entry below lists one item and its recorded IC50 value.

>  <Compound>
C=C1[C@H](OC(C)=O)[C@@H](OC(C)=O)[C@@H](OC(C)=O)C(C)(C)/C=C/[C@H](C)[C@H]2O[C@]3(C)C[C@@]2(OC(=O)c2ccccc2)[C@H]([C@H]3OC(C)=O)[C@H]1OCC(C)C

>  <IC50>
> 100 µM

$$$$
>  <Compound>
C=C1[C@H](OC(C)=O)[C@@H](OC(=O)c2cccc(C)c2)[C@@H](OC(C)=O)C(C)(C)/C=C/[C@H](C)[C@H](OC(=O)c2ccccc2)[C@@]2(O)C[C@@](C)(O)[C@H](OC(C)=O)[C@@H]2[C@H]1OCC(C)C

>  <IC50>
23.4 µM

$$$$
>  <Compound>
C=C1[C@H](O)[C@@H](OC(=O)c2cccc(C)c2)[C@@H](O)C(C)(C)/C=C/[C@H](C)[C@H](OC(=O)c2ccccc2)[C@@]2(O)C[C@@](C)(O)[C@H](OC(C)=O)[C@@H]2[C@H]1OCC(C)C

>  <IC50>
63.8 µM

$$$$

====

assay: Cytotoxicity against human HEK293T cells assessed as reduction in cell viability incubated for 48 hrs by MTT assay; format: toxicity, cell-based, HEK-293T
Lab note: anything with IC50 at 48 h below 10 µM is marked yes (1); values at 10 µM or higher are marked no (0).

>  <Compound>
C=C1[C@H](O)[C@@H](O)[C@@H](O)C(C)(C)/C=C/[C@H](C)[C@H](OC(=O)c2ccccc2)[C@@]2(O)C[C@@](C)(O)[C@H](OC(C)=O)[C@@H]2[C@H]1OCC(C)C

>  <Class>
no (0)

$$$$
>  <Compound>
COc1ccc(CCN(C)CCCC(C#N)(c2ccc(OC)c(OC)c2)C(C)C)cc1OC (stereo not given)

>  <Class>
no (0)

$$$$
>  <Compound>
C=C1[C@H](OC(C)=O)[C@@H](OC(C)=O)[C@@H](OC(C)=O)C(C)(C)/C=C/[C@H](C)[C@H](OC(=O)c2ccccc2)[C@@]2(O)C[C@@](C)(OC(C)=O)[C@H](OC(C)=O)[C@@H]2[C@H]1OCC(C)C

>  <Class>
no (0)

$$$$
>  <Compound>
CC(=O)O[C@@H]1[C@@H]2[C@@H](OCC(C)C)C3(CO3)[C@H](O)[C@@H](O)[C@@H](O)C(C)(C)/C=C/[C@H](C)[C@H](OC(=O)c3ccccc3)[C@@]2(O)C[C@@]1(C)O (stereo not given in full)

>  <Class>
no (0)

$$$$
>  <Compound>
C=C1[C@H](OC(C)=O)[C@@H](OC(C)=O)[C@@H](OC(C)=O)C(C)(C)/C=C/[C@H](C)[C@H]2O[C@]3(C)C[C@@]2(OC(=O)c2ccccc2)[C@H]([C@H]3OC(C)=O)[C@H]1OCC(C)C

>  <Class>
no (0)

$$$$
>  <Compound>
C=C1[C@H](OC(C)=O)[C@@H](OC(C)=O)[C@@H](OC(C)=O)C(C)(C)/C=C/[C@H](C)[C@H](OC(=O)c2ccccc2)[C@@]2(O)C[C@@](C)(O)[C@H](OC(C)=O)[C@@H]2[C@H]1OCC(C)C

>  <Class>
no (0)

$$$$
>  <Compound>
C=C1[C@H](OC(C)=O)[C@@H](OC(=O)C(C)(C)C)[C@@H](OC(C)=O)C(C)(C)/C=C/[C@H](C)[C@H](OC(=O)c2ccccc2)[C@@]2(O)C[C@@](C)(O)[C@H](OC(C)=O)[C@@H]2[C@H]1OCC(C)C

>  <Class>
no (0)

$$$$
>  <Compound>
C=C1[C@H](OC(C)=O)[C@@H](OC(C)=O)[C@@H](OC(C)=O)C(C)(C)/C=C/[C@H](C)[C@H](OC(=O)c2ccccc2)[C@@]2(O)C[C@@](C)(OC(=O)c3cccc(C)c3)[C@H](OC(C)=O)[C@@H]2[C@H]1OCC(C)C

>  <Class>
yes (1)

$$$$
>  <Compound>
C=C1[C@H](OC(C)=O)[C@@H](OC(=O)c2cccc(C)c2)[C@@H](OC(C)=O)C(C)(C)/C=C/[C@H](C)[C@H](OC(=O)c2ccccc2)[C@@]2(O)C[C@@](C)(O)[C@H](OC(C)=O)[C@@H]2[C@H]1OCC(C)C

>  <Class>
yes (1)

$$$$
>  <Compound>
C=C1[C@H](OC(C)=O)[C@@H](OC(C)=O)[C@@H](O)C(C)(C)/C=C/[C@H](C)[C@H](OC(=O)c2ccccc2)[C@@]2(O)C[C@@](C)(O)[C@H](OC(C)=O)[C@@H]2[C@H]1OCC(C)C

>  <Class>
no (0)

$$$$

====

Each entry below lists one item and its recorded log10 of IC50 at 48 h value.
assay: Cytotoxicity against human HEK293T cells assessed as reduction in cell viability incubated for 48 hrs by MTT assay; format: toxicity, cell-based, HEK-293T
Quantity Name: log10 of IC50 at 48 h (log10 of the value in µM)

>  <Compound>
C=C1[C@H](OC(C)=O)[C@@H](OC(=O)c2cccc(C)c2)[C@@H](OC(C)=O)C(C)(C)/C=C/[C@H](C)[C@H](OC(=O)c2ccccc2)[C@@]2(O)C[C@@](C)(OC(C)=O)[C@H](OC(C)=O)[C@@H]2[C@H]1OCC(C)C

>  <log10 of IC50 at 48 h>
0.88

$$$$
>  <Compound>
C=C1[C@H](OC(C)=O)[C@@H](OC(=O)C(C)(C)C)[C@@H](OC(C)=O)C(C)(C)/C=C/[C@H](C)[C@H](OC(=O)c2ccccc2)[C@@]2(O)C[C@@](C)(OC(C)=O)[C@H](OC(C)=O)[C@@H]2[C@H]1OCC(C)C

>  <log10 of IC50 at 48 h>
1.28

$$$$
>  <Compound>
C=C1[C@H](OC(C)=O)[C@@H](OC(C)=O)[C@@H](OC(C)=O)C(C)(C)/C=C/[C@H](C)[C@H](OC(=O)c2ccccc2)[C@@]2(O)C[C@@](C)(OC(=O)C(C)(C)C)[C@H](OC(C)=O)[C@@H]2[C@H]1OCC(C)C

>  <log10 of IC50 at 48 h>
1.75

$$$$
>  <Compound>
C=C1[C@H](O)[C@@H](OC(=O)c2cccc(C)c2)[C@@H](O)C(C)(C)/C=C/[C@H](C)[C@H](OC(=O)c2ccccc2)[C@@]2(O)C[C@@](C)(O)[C@H](OC(C)=O)[C@@H]2[C@H]1OCC(C)C

>  <log10 of IC50 at 48 h>
1.50

$$$$
>  <Compound>
COc1cc2c(cc1OC)CN(CCc1ccc(NC(=O)c3cc(OC)c(OC)cc3NC(=O)c3cnc4ccccc4c3)cc1)CC2

>  <log10 of IC50 at 48 h>
0.72

$$$$
>  <Compound>
C=C1[C@H](O)[C@@H](OC(=O)C(C)(C)C)[C@@H](O)C(C)(C)/C=C/[C@H](C)[C@H](OC(=O)c2ccccc2)[C@@]2(O)C[C@@](C)(O)[C@H](OC(C)=O)[C@@H]2[C@H]1OCC(C)C

>  <log10 of IC50 at 48 h>
1.50

$$$$
>  <Compound>
C=C1[C@H](OCC(C)C)[C@@H](OC(C)=O)[C@@H](OC(C)=O)C(C)(C)[C@@H]2O[C@H]2[C@H](C)[C@H](OC(=O)c2ccccc2)[C@@]2(O)C[C@@](C)(OC(C)=O)[C@H](OC(C)=O)[C@@H]2[C@H]1OCC(C)C

>  <log10 of IC50 at 48 h>
1.68

$$$$
>  <Compound>
C=C1[C@H](OC(C)=O)[C@@H](OC(C)=O)[C@@H](OC(C)=O)C(C)(C)/C=C/[C@H](C)[C@H](OC(=O)c2ccccc2)[C@@]2(O)C[C@@](C)(OC(=O)c3ccncc3)[C@H](OC(C)=O)[C@@H]2[C@H]1OCC(C)C

>  <log10 of IC50 at 48 h>
1.29

$$$$
>  <Compound>
C=C1[C@H](OC(=O)c2cccc(C)c2)[C@@H](O)[C@@H](O)C(C)(C)/C=C/[C@H](C)[C@H](OC(=O)c2ccccc2)[C@@]2(O)C[C@@](C)(O)[C@H](OC(C)=O)[C@@H]2[C@H]1OCC(C)C

>  <log10 of IC50 at 48 h>
1.08

$$$$

====

test system: MCF7; experiment: Antiproliferative activity against human MCF7 cells assessed as reduction in cell viability incubated for 48 hrs by MTT assay; assay type: functional, cell-based; conditions: MCF7, 48 h
pIC50: −log10 of the molar value.
Quantity Name: pIC50

>  <Molecule>
COc1ccc(CCN(C)CCCC(C#N)(c2ccc(OC)c(OC)c2)C(C)C)cc1OC (stereo unspecified)

>  <Readout Number>
4.06

$$$$
